- TGT: Leucine-rich repeat serine/threonine-protein kinase 2 (Homo sapiens, UniProt Q5S007, G2019S)
- Sequence (Q5S007 whole entry G2019S, the tested form may be a part): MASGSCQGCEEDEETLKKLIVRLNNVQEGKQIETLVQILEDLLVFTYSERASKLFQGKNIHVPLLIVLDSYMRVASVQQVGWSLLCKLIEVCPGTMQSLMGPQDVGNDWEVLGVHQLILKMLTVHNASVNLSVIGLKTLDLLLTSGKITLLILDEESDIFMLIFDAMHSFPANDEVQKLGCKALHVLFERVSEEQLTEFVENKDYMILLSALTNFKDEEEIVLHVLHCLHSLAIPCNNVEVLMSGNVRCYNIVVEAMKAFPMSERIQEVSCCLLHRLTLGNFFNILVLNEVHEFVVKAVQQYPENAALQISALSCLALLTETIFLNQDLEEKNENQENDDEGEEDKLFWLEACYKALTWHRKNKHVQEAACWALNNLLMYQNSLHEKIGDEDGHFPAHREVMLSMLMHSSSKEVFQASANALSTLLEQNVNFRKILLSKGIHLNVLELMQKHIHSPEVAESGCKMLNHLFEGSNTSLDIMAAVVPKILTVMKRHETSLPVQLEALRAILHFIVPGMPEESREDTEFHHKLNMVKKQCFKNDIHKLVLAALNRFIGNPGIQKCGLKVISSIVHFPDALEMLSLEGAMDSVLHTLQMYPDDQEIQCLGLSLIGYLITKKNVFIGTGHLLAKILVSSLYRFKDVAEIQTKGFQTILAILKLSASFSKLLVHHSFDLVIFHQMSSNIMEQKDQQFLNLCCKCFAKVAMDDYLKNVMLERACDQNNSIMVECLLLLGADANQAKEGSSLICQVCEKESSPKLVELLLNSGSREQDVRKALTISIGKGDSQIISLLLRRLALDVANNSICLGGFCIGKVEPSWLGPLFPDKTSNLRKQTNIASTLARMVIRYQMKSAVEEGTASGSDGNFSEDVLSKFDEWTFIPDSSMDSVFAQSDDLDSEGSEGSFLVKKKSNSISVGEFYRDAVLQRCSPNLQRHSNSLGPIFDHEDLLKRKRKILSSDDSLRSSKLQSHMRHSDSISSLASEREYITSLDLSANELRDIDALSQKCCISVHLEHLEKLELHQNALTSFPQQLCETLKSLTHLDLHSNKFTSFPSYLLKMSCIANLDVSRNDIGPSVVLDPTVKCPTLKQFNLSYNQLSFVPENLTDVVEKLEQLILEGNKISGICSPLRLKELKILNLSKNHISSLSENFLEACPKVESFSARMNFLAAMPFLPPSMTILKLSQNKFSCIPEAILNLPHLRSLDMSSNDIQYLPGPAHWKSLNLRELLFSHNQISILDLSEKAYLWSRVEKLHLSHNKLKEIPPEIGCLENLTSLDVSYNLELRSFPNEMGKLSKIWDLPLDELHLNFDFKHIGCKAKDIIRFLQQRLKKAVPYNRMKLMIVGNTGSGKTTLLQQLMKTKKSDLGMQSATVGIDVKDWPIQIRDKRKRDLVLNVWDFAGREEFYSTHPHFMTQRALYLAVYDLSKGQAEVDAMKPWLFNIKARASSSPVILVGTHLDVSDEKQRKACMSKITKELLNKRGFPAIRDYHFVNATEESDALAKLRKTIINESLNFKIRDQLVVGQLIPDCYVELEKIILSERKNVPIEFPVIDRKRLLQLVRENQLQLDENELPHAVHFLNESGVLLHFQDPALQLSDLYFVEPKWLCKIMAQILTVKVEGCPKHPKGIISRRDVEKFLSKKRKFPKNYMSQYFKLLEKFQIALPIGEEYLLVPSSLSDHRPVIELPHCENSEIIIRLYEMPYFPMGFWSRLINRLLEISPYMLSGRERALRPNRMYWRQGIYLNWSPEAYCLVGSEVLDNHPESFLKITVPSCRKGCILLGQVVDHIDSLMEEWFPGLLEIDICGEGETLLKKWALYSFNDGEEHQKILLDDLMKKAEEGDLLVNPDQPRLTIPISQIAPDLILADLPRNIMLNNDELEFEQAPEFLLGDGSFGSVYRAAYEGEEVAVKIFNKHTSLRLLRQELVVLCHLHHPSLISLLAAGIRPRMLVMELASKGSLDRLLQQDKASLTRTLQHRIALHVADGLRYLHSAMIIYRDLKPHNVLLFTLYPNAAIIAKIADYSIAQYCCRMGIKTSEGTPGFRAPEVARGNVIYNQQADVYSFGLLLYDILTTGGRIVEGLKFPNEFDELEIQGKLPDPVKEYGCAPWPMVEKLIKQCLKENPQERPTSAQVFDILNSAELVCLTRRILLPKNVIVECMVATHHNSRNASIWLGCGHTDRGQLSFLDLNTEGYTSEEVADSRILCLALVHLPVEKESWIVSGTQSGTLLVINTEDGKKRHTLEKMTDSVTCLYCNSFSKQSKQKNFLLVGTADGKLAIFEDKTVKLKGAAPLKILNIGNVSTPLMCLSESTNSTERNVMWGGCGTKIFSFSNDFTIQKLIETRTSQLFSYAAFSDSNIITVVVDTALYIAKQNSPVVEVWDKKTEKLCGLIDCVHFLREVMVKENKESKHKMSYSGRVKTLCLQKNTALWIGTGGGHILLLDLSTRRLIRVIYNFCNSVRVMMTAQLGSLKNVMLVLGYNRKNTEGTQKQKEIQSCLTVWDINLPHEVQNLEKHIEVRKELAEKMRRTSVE
- ASSAY EXPLANATION: Inhibition of GST-tagged truncated human LRRK2 G2019S mutant using fluorescein labeled LRRKtide peptide as substrate preincubated for 15 mins followed by substrate addition and measured after 90 mins in presence of ATP at Km concentration by TR-FRET Lanthascreen assay
In this section we review reported IC50 values for a set of molecules.

- MOLECULE: "Cc1c(Nc2ncc3cc(Cl)c(N4C(=O)OC[C@H]4C)cc3n2)cnn1C1CCOCC1"
  IC50: "0.451 nM"
- MOLECULE: "CC1(O)CCN(c2cc3nc(Nc4cnn(C5CC5)c4Cl)ncc3cc2Cl)C1 (stereo unspecified)"
  IC50: "0.169 nM"
- MOLECULE: "Clc1cc2cnc(Nc3cnn(C45CC(C4)C5)c3Cl)nc2cc1N1CCC2(CCCO2)CC1"
  IC50: "0.174 nM"
- MOLECULE: "CC(C)(C)Cn1cc(Nc2ncc3cc(Cl)c(N4CCC(C5(C)COC5)CC4)cc3n2)cn1"
  IC50: "0.187 nM"
- MOLECULE: "CC(C)(O)CN1CCN(c2cc3nc(Nc4cnn(C5CC5)c4Cl)ncc3cc2Cl)CC1"
  IC50: "0.0759 nM"
- MOLECULE: "CC1NN=CC1Nc1ncc2cc(Cl)c(N3CCC(C)(O)C(C)C3)cc2n1 (stereo unspecified)"
  IC50: "0.0646 nM"
